// provenance: PubChem BioAssay (NCATS)

System name: Retinaldehyde dehydrogenase 3 (Homo sapiens) (UniProt P47895)
Procedure summary: qHTS for Inhibitors of the Aldehyde Dehydrogenase Family (ALDH1A3) Primary screen (AID 2061315)
Condition details: ALDH inhibition qHTS; series mostly up to 56 µM
Records with an inconclusive call do not appear. The source made the active and inactive calls. The call rests on the fitted dose curve; in most records, active means well fitted inhibition curve with a large enough effect; inconclusive means small, poorly fitted or top-dose-only effect; inactive means no such curve, though single readings can be large or run the other way.
Result type: activity change, negative = inhibition

[[record]]
molecule = "O=C(Nc1nc2ccccc2n1CCc1ccccc1)c1ccccc1"
result_type = "activity change, negative = inhibition"
obs_value = "inactive"

[[record]]
molecule = "C[C@H](O)[C@H](O)[C@H]1CNc2nc(N)[nH]c(=O)c2N1"
result_type = "activity change, negative = inhibition"
obs_value = "inactive"

[[record]]
molecule = "O=C(CO)[C@@H](O)[C@H](O[C@@H]1O[C@H](CO)[C@H](O)[C@H](O)[C@H]1O)[C@H](O)CO"
result_type = "activity change, negative = inhibition"
obs_value = "inactive"

[[record]]
molecule = "Nc1nonc1C(=Nc1ccc(F)c(Cl)c1)NO"
result_type = "activity change, negative = inhibition"
obs_value = "inactive"

[[record]]
molecule = "COc1ccc(C2(O)CCC(N3CC[C@@H](NC(=O)CNC(=O)c4cccc(C(F)(F)F)c4)C3)CC2)cn1 (some centres undefined)"
result_type = "activity change, negative = inhibition"
obs_value = "inactive"

[[record]]
molecule = "CCCCNc1nc(C#N)nc(Nc2ccccc2)n1"
result_type = "activity change, negative = inhibition"
obs_value = "inactive"

[[record]]
molecule = "Cc1nc(Nc2ncc(C(=O)Nc3c(C)cccc3Cl)s2)cc(N2CCN(CCO)CC2)n1"
result_type = "activity change, negative = inhibition"
obs_value = "inactive"

[[record]]
molecule = "COc1cc(C2Oc3c(O)cc(CCCO)cc3C2CO)ccc1O[C@H]1O[C@H](C)[C@@H](O)[C@H](O)[C@@H]1O (some centres undefined)"
result_type = "activity change, negative = inhibition"
obs_value = "inactive"

[[record]]
molecule = "CC(CCC1(O)OC2CC3C4CC=C5CC(O[C@@H]6O[C@H](CO)[C@@H](O[C@@H]7O[C@@H](C)[C@H](O)[C@@H](O)[C@H]7O)[C@H](O)[C@H]6O[C@@H]6O[C@@H](C)[C@H](O)[C@@H](O)[C@H]6O)CCC5(C)C4CCC3(C)C2C1C)CO[C@@H]1O[C@H](CO)[C@@H](O)[C@H](O)[C@H]1O (some centres undefined)"
result_type = "activity change, negative = inhibition"
obs_value = "inactive"


====

Procedure summary: BET inhibitor-based combinations targeting novel dependencies in MECOM-rearranged (r) AML: AML-194 cell line (AID 2202237; further: nearly all actives have a fitted effect of over 40% in size)
Condition details: AML-194 (MECOM-r AML) viability, CellTiter-Glo, 48 h; series mostly up to 46 µM
Inconclusive results are not listed. Active and inactive are the calls of the source. The call rests on the fitted dose curve; in most records, active means well fitted inhibition curve with a large enough effect; inconclusive means small, poorly fitted or top-dose-only effect; inactive means flat fitted curve, though single readings scatter.
Possible outcomes: Yes for active, No for inactive

[[record]]
compound = "COc1cc(Nc2ncc(F)c(Nc3ccc4c(n3)NC(=O)C(C)(C)O4)n2)cc(OC)c1OC"
group_label = "Yes"

[[record]]
compound = "CN1C(=O)C[C@H](C(=O)N[C@@H](Cc2cnc[nH]2)C(=O)N2CCC[C@@H]2C(N)=O)NC1=O"
group_label = "No"

[[record]]
compound = "C=CC(=O)Nc1cc(Nc2nccc(-c3cn(C)c4ccccc34)n2)c(OC)cc1N(C)CCN(C)C"
group_label = "Yes"

[[record]]
compound = "CCOC(=O)C=C[C@H](C[C@@H]1CCNC1=O)NC(=O)[C@@H](CC(=O)[C@@H](NC(=O)c1cc(C)on1)C(C)C)Cc1ccc(F)cc1"
group_label = "No"

[[record]]
compound = "CN(C)C1CCN(C(=O)c2ccc(NC(=O)Nc3ccc(-c4nc(N5CCOCC5)nc(N5CCOCC5)n4)cc3)cc2)CC1"
group_label = "Yes"

[[record]]
compound = "Cc1cccc(-c2[nH]c(CNc3ccccc3F)nc2-c2ccc3ncnn3c2)n1"
group_label = "No"

[[record]]
compound = "COc1cc2c(cc1OC)CN(CCc1ccc(NC(=O)c3cccc4c(=O)c5cccc(OC)c5[nH]c34)cc1)CC2"
group_label = "No"

[[record]]
compound = "CC(C)(C)c1cnc(CSc2cnc(NC(=O)C3CCNCC3)s2)o1"
group_label = "Yes"

[[record]]
compound = "CCCN(CCC)C(=O)C(CCC(=O)O)NC(=O)c1ccccc1 (centres undefined)"
group_label = "No"


====

System name: Aldehyde dehydrogenase, mitochondrial (Homo sapiens) (UniProt P05091)
Procedure summary: qHTS for Inhibitors of the Aldehyde Dehydrogenase Family (ALDH2) Primary screen (AID 2061308); further: nearly all actives have a fitted effect of over 55% in size
Condition details: ALDH2 enzyme inhibition qHTS, 1536-well; series mostly up to 56 µM
Inconclusive results are not listed. Activity calls are given as the source filed them. The call rests on the fitted dose curve; in most records, active means well fitted inhibition curve with a large enough effect; inconclusive means small, poorly fitted or top-dose-only effect; inactive means flat fitted curve, though single readings scatter.
Result type: activity change, negative = inhibition

[[record]]
molecule = "CC(C)S(=O)(=O)c1ccc2nccc(Nc3ccc4scnc4c3)c2c1"
system_name = "Aldehyde dehydrogenase, mitochondrial (Homo sapiens) (UniProt P05091)"
result_type = "activity change, negative = inhibition"
obs_value = "inactive"

[[record]]
molecule = "CC1(C)CCC(C)(C)c2cc([C@@H](O)C(=O)Nc3ccc(C(=O)O)cc3F)ccc21"
system_name = "Aldehyde dehydrogenase, mitochondrial (Homo sapiens) (UniProt P05091)"
result_type = "activity change, negative = inhibition"
obs_value = "inactive"

[[record]]
molecule = "COc1ccc(-c2nc3ccccc3s2)cc1"
system_name = "Aldehyde dehydrogenase, mitochondrial (Homo sapiens) (UniProt P05091)"
result_type = "activity change, negative = inhibition"
obs_value = "inactive"

[[record]]
molecule = "O=C(O)c1ccc(Nc2ncc3c(n2)-c2ccc(Cl)cc2C(c2c(F)cccc2F)=NC3)cc1"
system_name = "Aldehyde dehydrogenase, mitochondrial (Homo sapiens) (UniProt P05091)"
result_type = "activity change, negative = inhibition"
obs_value = "inactive"

[[record]]
molecule = "c1ccc(CN(CC2=NCCN2)c2ccccc2)cc1"
system_name = "Aldehyde dehydrogenase, mitochondrial (Homo sapiens) (UniProt P05091)"
result_type = "activity change, negative = inhibition"
obs_value = "inactive"

[[record]]
molecule = "CC(O)C(C)n1ncn(-c2ccc(N3CCN(c4ccc(OCC5COC(Cn6cncn6)(c6ccc(Cl)cc6Cl)O5)cc4)CC3)cc2)c1=O (centres undefined)"
system_name = "Aldehyde dehydrogenase, mitochondrial (Homo sapiens) (UniProt P05091)"
result_type = "activity change, negative = inhibition"
obs_value = "inactive"

[[record]]
molecule = "CCC[C@@]1(CCc2ccccc2)CC(O)=C([C@H](CC)c2cccc(NS(=O)(=O)c3ccc(C(F)(F)F)cn3)c2)C(=O)O1"
system_name = "Aldehyde dehydrogenase, mitochondrial (Homo sapiens) (UniProt P05091)"
result_type = "activity change, negative = inhibition"
obs_value = "inactive"

[[record]]
molecule = "O=C1CCCC2=C1C(c1cccnc1Cl)N=C(Nc1nc3ccccc3o1)N2 (centres undefined)"
system_name = "Aldehyde dehydrogenase, mitochondrial (Homo sapiens) (UniProt P05091)"
result_type = "activity change, negative = inhibition"
obs_value = "inactive"

[[record]]
molecule = "CCC(=O)O[C@H]1C(C)(C)[C@H]([C@@H](O)C(=O)OC)[C@]2(C)C(=O)[C@@]1(O)[C@H]1O[C@]13C1CC(=O)O[C@@H](c4ccoc4)[C@]1(C)CCC32 (some centres undefined)"
system_name = "Aldehyde dehydrogenase, mitochondrial (Homo sapiens) (UniProt P05091)"
result_type = "activity change, negative = inhibition"
obs_value = "inactive"


====

Procedure summary: BET inhibitor-based combinations targeting novel dependencies in MECOM-rearranged (r) AML: AML-194 cell line (AID 2202237)
Condition details: AML-194 (MECOM-r AML) viability, CellTiter-Glo, 48 h; series mostly up to 46 µM
Results filed as inconclusive are left out. Activity calls are given as the source filed them. The call rests on the fitted dose curve; in most records, active means well fitted inhibition curve with a large enough effect; inconclusive means small, poorly fitted or top-dose-only effect; inactive means flat fitted curve, though single readings scatter.
Possible outcomes: active, inactive

[[record]]
smiles_code = "C[C@@]1(c2cc(-c3cncnc3)c(F)cc2F)CCSC(N)=N1"
group_label = "inactive"

[[record]]
smiles_code = "C=CC(=O)Nc1cccc(Sc2nc(Nc3ccc(N4CCN(C)CC4)cc3)ncc2Cl)c1"
group_label = "active"

[[record]]
smiles_code = "CCn1cc(C(=O)O)c(=O)c2cc(F)c(N3CCNCC3)cc21"
group_label = "inactive"

[[record]]
smiles_code = "Cc1ccc(NC(=O)c2cccc(N(C)C)c2)cc1NC(=O)c1ccc(O)cc1"
group_label = "inactive"

[[record]]
smiles_code = "Cc1nc2c([nH]1)CCN(C(=O)c1ccc(NC(=O)c3ccccc3-c3ccccc3)cc1)c1ccccc1-2"
group_label = "inactive"

[[record]]
smiles_code = "COc1cc(OC)c(C(=O)CCCN2CCCC2)c(OC)c1"
group_label = "inactive"

[[record]]
smiles_code = "CC(C)c1cc(CNc2nc(Nc3cc(C4CC4)[nH]n3)cc(N3CCN(C)CC3)n2)on1"
group_label = "active"

[[record]]
smiles_code = "CCCCC(F)(F)[C@@]1(O)CC[C@H]2[C@H](CC(=O)[C@@H]2CCCCCCC(=O)O)O1"
group_label = "inactive"

[[record]]
smiles_code = "COC(=O)Nc1nc2ccc(Sc3ccccc3)cc2[nH]1"
group_label = "active"

[[record]]
smiles_code = "Cc1ccc([N+](=O)[O-])cc1S(=O)(=O)N(C)/N=C/c1cnc2ccc(Br)cn12"
group_label = "active"

